Below: a set of entries, each annotated with reported pIC50.
# System: 885512-296-R-J2-PDC complex spheroid growth, % test/control;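 also: spheroids exposed to compounds for seven days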
# measurement.protocol: Anticancer human tumor 885512-296-R-J2-PDC patient-derived breast carcinoma cell line growth inhibition [Asc]
# experimental.setup: curve of first compound; second compound 0.949 µM
Scale explanation: pIC50 corresponds to minus log10 of a concentration expressed in moles per litre.

INSERT INTO measurements (molecule, assayed_target, metric_name, reading) VALUES
  ('C=C(F)C(=O)N1CCN(c2nc(OCC3CCCN3C)nc3c2CCN(c2cccc4cccc(Cl)c24)C3)CC1CC#N (centres undefined) + CCN1C(C(=O)NC23CCC(C(=O)O)(CC2)CC3)C(c2cccc(Cl)c2F)C2(C(=O)Nc3cc(Cl)ccc32)C12CCCCC2', '885512-296-R-J2-PDC complex spheroid growth, % test/control', 'pIC50', 5.72),
  ('Cc1nc(N2CCC3(CC2)COC(C)C3N)c(CO)nc1Sc1ccnc(N)c1Cl (centres undefined) + CCN1C(C(=O)NC23CCC(C(=O)O)(CC2)CC3)C(c2cccc(Cl)c2F)C2(C(=O)Nc3cc(Cl)ccc32)C12CCCCC2', '885512-296-R-J2-PDC complex spheroid growth, % test/control', 'pIC50', 7.22),
  ('O=C(c1ccc(F)c(F)c1Nc1ccc(I)cc1F)N1CC(O)([C@@H]2CCCCN2)C1 + CCN1C(C(=O)NC23CCC(C(=O)O)(CC2)CC3)C(c2cccc(Cl)c2F)C2(C(=O)Nc3cc(Cl)ccc32)C12CCCCC2', '885512-296-R-J2-PDC complex spheroid growth, % test/control', 'pIC50', 7.26),
  ('Cn1ncnc1[C@H]1c2n[nH]c(=O)c3cc(F)cc(c23)N[C@@H]1c1ccc(F)cc1 + CCN1C(C(=O)NC23CCC(C(=O)O)(CC2)CC3)C(c2cccc(Cl)c2F)C2(C(=O)Nc3cc(Cl)ccc32)C12CCCCC2', '885512-296-R-J2-PDC complex spheroid growth, % test/control', 'pIC50', 7.63);

query: Would you kindly share the measured pIC50 for COc1c(OCCCN2CCOCC2)ccc2c3n(c(=NC(=O)c4cnc(N)nc4)nc12)CCN3 + CCN1C(C(=O)NC23CCC(C(=O)O)(CC2)CC3)C(c2cccc(Cl)c2F)C2(C(=O)Nc3cc(Cl)ccc32)C12CCCCC2 ?
result: 6.90
